Measurement Notes: Part 2 MAD: plasma pharmacokinetics, once daily for 10 days
Type: in vivo, human
Condition Set: human, plasma, oral, 3 mg, Day 1, geometric mean; read-out: C8 (concentration at 8-hour postdose)
Observable: concentration at 8 h

Q. Identify concentration at 8 h associated with the compound CS(=O)(=O)N[C@H]1CCCN2C(=O)COc3ccccc3C3CCC(CC3)OCC12 (stereo partly shown)
A. 1.21 ng/mL

---

Measurement Notes: Part 4 NT1: plasma pharmacokinetics, single doses
Type: in vivo
Condition Set: human, oral, NT1, 1 mg single dose, geometric mean, N = 3
Observable: Cmax
Put your answer as a value accompanied by its unit after it.

Q. Identify Cmax associated with the compound CS(=O)(=O)N[C@H]1CCCN2C(=O)COc3ccccc3C3CCC(CC3)OCC12 (stereo partly shown)
A. 4.39 ng/mL

The measured values listed here are drawn from patent US20250186405A1.
